experimentalSystem: Carbonic anhydrase (Candida glabrata CBS 138, UniProt Q6FTL6)
Sequence (Q6FTL6 whole entry): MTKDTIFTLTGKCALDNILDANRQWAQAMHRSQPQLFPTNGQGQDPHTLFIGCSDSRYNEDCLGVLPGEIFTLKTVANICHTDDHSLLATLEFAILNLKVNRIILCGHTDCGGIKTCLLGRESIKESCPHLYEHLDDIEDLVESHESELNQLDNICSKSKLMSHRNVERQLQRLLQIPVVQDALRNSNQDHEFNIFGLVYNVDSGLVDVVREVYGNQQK
Set-up: species or system Nakaseomyces glabratus
testParameters: read-out: Ki
pKi: −log10 of the molar value.
Reported pKi values are given for each entry in this list.
observable: pKi

compound | observable | val
NS(=O)(=O)Oc1ccc(NC(=O)Nc2cccc(Cl)c2)cc1 | pKi | 7.05
NS(=O)(=O)Nc1ccc(NC(=O)Nc2cccc([N+](=O)[O-])c2)cc1 | pKi | 8.39
Nc1ccc(S(N)(=O)=O)cc1Br | pKi | 6.96
NS(=O)(=O)c1ccc(NC(=O)NCc2ccccc2)cc1 | pKi | 7.09
NS(=O)(=O)c1nnc(NS(=O)(=O)c2ccccc2)s1 [BENZOLAMIDE] | pKi | 6.02
Nc1ccc(S(=O)(=O)Nc2nnc(S(N)(=O)=O)s2)cc1 | pKi | 6.97
NS(=O)(=O)Nc1ccc(NC(=O)Nc2ccc(Cl)cc2)cc1 | pKi | 8.26
CC(C)c1ccccc1NC(=O)Nc1ccc(NS(N)(=O)=O)cc1 | pKi | 7.47
CC1(C)O[C@@H]2[C@@H](CO[C@@]3(COS(N)(=O)=O)OC(C)(C)O[C@@H]23)O1 [TOPIRAMATE] | pKi | 6.96
NCCc1ccc(S(N)(=O)=O)cc1 | pKi | 6.26
Nc1ccc(S(=O)(=O)NCCc2ccc(S(N)(=O)=O)cc2)cc1 | pKi | 7.01
NS(=O)(=O)Oc1ccc(NC(=O)Nc2cccc3ccccc23)cc1 | pKi | 7.05
NCc1ccc(S(N)(=O)=O)cc1 [MAFENIDE] | pKi | 6.06
NS(=O)(=O)c1ccc(NC(=O)Nc2cccc([N+](=O)[O-])c2)cc1 | pKi | 8.21
CCCCOc1ccc(NC(=O)Nc2ccc(NS(N)(=O)=O)cc2)cc1 | pKi | 7.86
NS(=O)(=O)c1ccc(C(=O)O)cc1 [CARZENIDE] | pKi | 7.28
Cc1onc(-c2ccccc2)c1-c1ccc(S(N)(=O)=O)cc1 | pKi | 7.01
Nc1ccc(S(N)(=O)=O)cc1 [SULFANILAMIDE] | pKi | 5.10
N#Cc1ccccc1NC(=O)Nc1ccc(OS(N)(=O)=O)cc1 | pKi | 7.05
NS(=O)(=O)Nc1ccc(NC(=O)NCc2ccccc2)cc1 | pKi | 7.61
NS(=O)(=O)Nc1ccc(NC(=O)Nc2ccccc2-c2ccccc2)cc1 | pKi | 8.17
NS(=O)(=O)Nc1ccc(NC(=O)NC2CCCCC2)cc1 | pKi | 7.10
NS(=O)(=O)c1ccc(S(=O)(=O)Nc2cccc3c(Cl)c[nH]c23)cc1 | pKi | 7.03
